B1: TPR 5TU (parent)
chain: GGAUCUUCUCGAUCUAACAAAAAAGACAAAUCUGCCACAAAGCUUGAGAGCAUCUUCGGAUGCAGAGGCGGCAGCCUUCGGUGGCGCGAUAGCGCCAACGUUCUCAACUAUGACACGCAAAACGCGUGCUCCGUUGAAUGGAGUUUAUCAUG

Variants of: B1
Procedure Text: polymerase ribozyme fitness, log enrichment relative to wild type (log ratio); higher = more active; in vitro selection for triplet polymerase activity
This sample holds only a part of the variants without activity.
Would you kindly list polymerase ribozyme fitness (log ratio) for each of these variants?
Answers are plain numbers.

A21U A47G C54U G81C G92A C95A C99U ... -3.94
A20G C85A ... -2.13
U53G C93U ... -1.92
C14U ... -1.06
C5A C76U G84U C125U G141U ... -3.64
A17U C35U A97U G141A ... -1.34

Report polymerase ribozyme fitness (log ratio) for every entry below.
1. A60G A119C A120U U151C
2. A47C C57A
3. A39U C99A
4. A40U A120U G133C
5. C75G C96U

1: -4.18; 2: -0.176; 3: -3.7; 4: -1.72; 5: -3.61

Report polymerase ribozyme fitness (log ratio) for every entry below.
1. U55A C95A G143A U144C
2. U144G
3. G80A A142U U144C
4. U45A G83C
5. A19C U56A U104A A119U
6. A24C C85U

[-3.04, 0.948, -3.55, -3.51, -0.197, -3.65]
